Test system: Acinetobacter baumannii ATCC 19606
procedure.summary: Antimicrobial MIC assay (CO-ADD) against A. baumannii
Assay type: cell-based
experimental.parameters: Acinetobacter baumannii, ATCC19606, read-out: MIC A.b.
value.type: MIC

Here's what some known entries look like.
compound: C[C@H](CCC(=O)NCCCNCCCCCCCNCCCNC(=O)CC[C@@H](C)[C@H]1CC[C@H]2[C@@H]3[C@@H](O)C[C@@H]4C[C@H](O)CC[C@]4(C)[C@H]3CC[C@]12C)[C@H]1CC[C@H]2[C@@H]3[C@@H](O)C[C@@H]4C[C@H](O)CC[C@]4(C)[C@H]3CC[C@]12C.O=C(O)C(F)(F)F.O=C(O)C(F)(F)F
system.name: Acinetobacter baumannii ATCC 19606
MIC: > 26 µM

compound: C[C@H](CCC(=O)NCCCNCCCCCCCCCCCCNCCCNC(=O)CC[C@@H](C)[C@H]1CC[C@H]2[C@@H]3[C@@H](O)C[C@@H]4C[C@H](O)CC[C@]4(C)[C@H]3CC[C@]12C)[C@H]1CC[C@H]2[C@@H]3[C@@H](O)C[C@@H]4C[C@H](O)CC[C@]4(C)[C@H]3CC[C@]12C.O=C(O)C(F)(F)F.O=C(O)C(F)(F)F
system.name: Acinetobacter baumannii ATCC 19606
MIC: > 25 µM

compound: C[C@H](CCC(=O)NCCCNCCCCCCCCCCNCCCNC(=O)CC[C@@H](C)[C@H]1CC[C@H]2[C@@H]3C[C@H](O)[C@@H]4C[C@H](O)CC[C@]4(C)[C@H]3CC[C@]12C)[C@H]1CC[C@H]2[C@@H]3C[C@H](O)[C@@H]4C[C@H](O)CC[C@]4(C)[C@H]3CC[C@]12C.O=C(O)C(F)(F)F.O=C(O)C(F)(F)F
system.name: Acinetobacter baumannii ATCC 19606
MIC: > 25 µM

## Input Send back Acinetobacter baumannii ATCC 19606 MIC of `C[C@H](CCC(=O)NCCCNCCCCNCCCNC(=O)CC[C@@H](C)[C@H]1CC[C@H]2[C@@H]3[C@@H](O)C[C@@H]4C[C@H](O)CC[C@]4(C)[C@H]3CC[C@]12C)[C@H]1CC[C@H]2[C@@H]3[C@@H](O)C[C@@H]4C[C@H](O)CC[C@]4(C)[C@H]3CC[C@]12C.O=C(O)C(F)(F)F.O=C(O)C(F)(F)F` only.
## Output > 27 µM
